target: DCHS2; assay: pooled miR-30 sensor sort-seq; sequence = guide strand; settings: shRNA; note: reference of the scale not given here
metric: sensor-assay potency score (higher = more potent)
Give a plain numeric answer without units written out.

sequence ATACTTATTAAACTCAACCATT , sensor-assay potency score (higher = more potent) observed: -1.29

sequence TATATCAGTCACCTGTACCTTG , sensor-assay potency score (higher = more potent) observed: 0.322

sequence TAGAATAGGTCAATTCTCCATA , sensor-assay potency score (higher = more potent) observed: -0.353

sequence TTTTCTGGAACAATACAGCTGA , sensor-assay potency score (higher = more potent) observed: 0.21

sequence TGTACCTTGATTACAGTCGTAT , sensor-assay potency score (higher = more potent) observed: -0.366

sequence TAATCTAGAATCGCTTTTGTTG , sensor-assay potency score (higher = more potent) observed: -0.749

sequence TTATAGTAAAGCACTCATCAGT , sensor-assay potency score (higher = more potent) observed: -0.223

---

target: NEIL1; assay: pooled miR-30 sensor sort-seq; sequence = guide strand; settings: shRNA
So I've got a bunch of sequences here, and I need their sensor-assay potency score (higher = more potent) values.

sequence TTCTTTTTGCGGGACTTGCGCC , sensor-assay potency score (higher = more potent) observed: -1.12

sequence TATCTTCTGGCTCAGGGTCAGC , sensor-assay potency score (higher = more potent) observed: -1.69

sequence TGAACTGCTGGTACTCCTGCAA , sensor-assay potency score (higher = more potent) observed: -0.0198

sequence TTGCAGTCCTCTTAGGAAGGTC , sensor-assay potency score (higher = more potent) observed: -0.51

sequence TCTGTCCTCAGGACTCAGCTGT , sensor-assay potency score (higher = more potent) observed: -0.0425

sequence TCTTAGGAAGGTCTCTCTTTGC , sensor-assay potency score (higher = more potent) observed: -1.22

---

target: SMYD2; experiment: pooled miR-30 sensor sort-seq; sequence = guide strand; conditions: shRNA
metric: sensor-assay potency score (higher = more potent)
Give a plain numeric answer without units written out.

sequence TTTTCTGTCCATATTGCAGGGC , sensor-assay potency score (higher = more potent) observed: -0.2

sequence TAACATATGAAACCATGCCATT , sensor-assay potency score (higher = more potent) observed: -1.62

sequence TTACTGTCCTCAAACACAGAGC , sensor-assay potency score (higher = more potent) observed: -0.927

sequence TTGACCGTGAGCACGTAGGCAT , sensor-assay potency score (higher = more potent) observed: -0.166

sequence TAGGTCACAATGACATTGGGGC , sensor-assay potency score (higher = more potent) observed: 0.446

sequence TACAGGAGATCAATATAGCTGG , sensor-assay potency score (higher = more potent) observed: -0.203

sequence TTTGCCGTGAGCTACTTCCATG , sensor-assay potency score (higher = more potent) observed: -1.61

sequence TTAAGGTTTCTGAACTAAGTGT , sensor-assay potency score (higher = more potent) observed: -0.419

sequence TAGTCTTACAGTCTCCGAGGGA , sensor-assay potency score (higher = more potent) observed: -0.703

---

biological target: SPAM1; assay: pooled miR-30 sensor sort-seq; sequence = guide strand; conditions: shRNA
So I've got a bunch of sequences here, and I need their sensor-assay potency score (higher = more potent) values.

sequence TAACAATGAACATTGTGGCAGA , sensor-assay potency score (higher = more potent) observed: -0.131

sequence TTTATTTCTACATTGAAGCAAC , sensor-assay potency score (higher = more potent) observed: -0.796

sequence TTTCCTTATACACACTCCTTGC , sensor-assay potency score (higher = more potent) observed: -0.862

sequence TATTGTAACACCTTGCCCGGTG , sensor-assay potency score (higher = more potent) observed: -0.194

sequence TCTATCTTTGTAACTTGCCTTC , sensor-assay potency score (higher = more potent) observed: -0.492

sequence TAATTGTCTAGGAGCAAGCAAG , sensor-assay potency score (higher = more potent) observed: -1.53

sequence TTTCATTCCACAACCAGCTGAG , sensor-assay potency score (higher = more potent) observed: 0.0511

sequence TTGAATAGCAAAATTATCTGGG , sensor-assay potency score (higher = more potent) observed: 0.668

---

target: LONP1; assay: pooled miR-30 sensor sort-seq; sequence = guide strand; conditions: shRNA
metric: sensor-assay potency score (higher = more potent)
Give a plain numeric answer without units written out.

sequence AAACACTGGATGATCTTCCCGG , sensor-assay potency score (higher = more potent) observed: 0.233

sequence ATCTGCAGCACTGACTCCCTGT , sensor-assay potency score (higher = more potent) observed: -0.477

sequence TCTCTCTTTAGAAAGACGCCGA , sensor-assay potency score (higher = more potent) observed: -0.565

sequence ATCCTTGTCGTCCTTCTCCAGG , sensor-assay potency score (higher = more potent) observed: -1.37

sequence TAGAAGTCCTTCTTGTTCTCGG , sensor-assay potency score (higher = more potent) observed: 0.532

sequence TTTCCGTAACACCTTCTCCACT , sensor-assay potency score (higher = more potent) observed: -1.42

sequence TTCAAATTCCTTCTTCAGCAGG , sensor-assay potency score (higher = more potent) observed: -0.339

sequence TAACACCTTCTCCACTTGCTTC , sensor-assay potency score (higher = more potent) observed: -1.18

---

molecular target: HBB; assay: pooled miR-30 sensor sort-seq; sequence = guide strand; details: shRNA
Where sensor-assay potency score (higher = more potent) equals or exceeds -0.8, the correct label is condition met; where it does not, the label is condition not met.

Say whether ACCACCAACTTCATCCACGTTC shows sensor-assay potency score (higher = more potent) of -0.8 or more.
condition not met

Say whether TTTGCCAAAGTGATGGGCCAGC shows sensor-assay potency score (higher = more potent) of -0.8 or more.
condition met

Say whether ATCAGGAGTGGACAGATCCCCA shows sensor-assay potency score (higher = more potent) of -0.8 or more.
condition not met

Say whether AACTTCATCCACGTTCACCTTG shows sensor-assay potency score (higher = more potent) of -0.8 or more.
condition met

Say whether TTCTTTGCCAAAGTGATGGGCC shows sensor-assay potency score (higher = more potent) of -0.8 or more.
condition met

Say whether TCTGATAGGCAGCCTGCACTGG shows sensor-assay potency score (higher = more potent) of -0.8 or more.
condition met

---

target: SLC35D2; experiment: pooled miR-30 sensor sort-seq; sequence = guide strand; settings: shRNA
Each record gets a class by sensor-assay potency score (higher = more potent): range A: < -0.7; range B: ≥ -0.7 and < 0.05; range C: ≥ 0.05

Class for TACATTTCTTGAGACTGCCATT ?
range A

Class for TTACTTGTGCTTGATAATCCAC ?
range B

Class for TTAGCTTGGACACATATAGTAT ?
range B

Class for TTAACTAATTTTATTAGACTAA ?
range A

Class for TATAGTATCATTATGGTGGCTG ?
range C

Class for TTGTGCTTGATAATCCACTTAT ?
range B

Class for TAGGATAAACACAACATTCTTC ?
range C

Class for TAGCTGCACAGAACCGTGGAGT ?
range A

Class for TAAACTGAAACAACTGGCCCTT ?
range C

---

target: SIPA1L2; assay: pooled miR-30 sensor sort-seq; sequence = guide strand; details: shRNA
So I've got a bunch of sequences here, and I need their sensor-assay potency score (higher = more potent) values.
Give a plain numeric answer without units written out.

sequence TTGTCTTGTTTTTCCTTCCGAA , sensor-assay potency score (higher = more potent) observed: -0.306

sequence TACTTTTTGAACAGTGAGCTGA , sensor-assay potency score (higher = more potent) observed: 0.29

sequence TTGTTCATCAAGCTTGAGCAGC , sensor-assay potency score (higher = more potent) observed: -0.923

sequence TAACAGTTCGAAGCTTTCGGAA , sensor-assay potency score (higher = more potent) observed: -0.928

sequence TACAACATTCTTGGAATCCTTT , sensor-assay potency score (higher = more potent) observed: -0.254

sequence TAGCTTGTGCTTCTCTTCTTGT , sensor-assay potency score (higher = more potent) observed: -0.716

sequence TTCAGCACAGTTGTCTACCGAG , sensor-assay potency score (higher = more potent) observed: -0.567

sequence TAGCGCTTCACTTTCTCCCTGT , sensor-assay potency score (higher = more potent) observed: 0.691

sequence TTATACATCTCTTCCTCTGTGC , sensor-assay potency score (higher = more potent) observed: 0.628

---

molecular target: ALDH9A1; assay: pooled miR-30 sensor sort-seq; sequence = guide strand; conditions: shRNA
So I've got a bunch of sequences here, and I need their sensor-assay potency score (higher = more potent) values.
Give a plain numeric answer without units written out.

sequence TTCTCTTATACTGAACGCCAAA , sensor-assay potency score (higher = more potent) observed: -1.4

sequence TAATACTCCAGGCACTGCCAGG , sensor-assay potency score (higher = more potent) observed: -1.24

sequence TTGATTAGTATCTACAAGGCAC , sensor-assay potency score (higher = more potent) observed: 0.363

sequence TTATCCTAGTCTCTTTTCCTGT , sensor-assay potency score (higher = more potent) observed: -0.816

sequence TAATACACAAGGTCTCATGTAA , sensor-assay potency score (higher = more potent) observed: 0.189

sequence TATAACCAAACGATCCACCTGG , sensor-assay potency score (higher = more potent) observed: 0.155

sequence TTCTTGATTAGTATCTACAAGG , sensor-assay potency score (higher = more potent) observed: -0.856

sequence TTAGTTAATACACAAGGTCTCA , sensor-assay potency score (higher = more potent) observed: -0.528

sequence TTCTCTAGAAGTATGTTACTGG , sensor-assay potency score (higher = more potent) observed: -0.159

sequence TCTCATGTAATATCCATCCTTT , sensor-assay potency score (higher = more potent) observed: -0.314

meta.source: the OligoGym collection
